- assay.overview: Stability in human liver microsomes assessed as half life incubated in presence of NADPH by LC-MS/MS analysis
- Assay type: ADME, Microsome
measure: half-life

>>> recorded_result("Cc1ccc(S(=O)(=O)Nc2cc(C(=O)NCc3ccc(C)nc3)ccc2C)cc1")
"24 min"

* * *

- System: HGC-27
- assay.overview: Antiproliferative activity against human HGC-27 cells assessed as inhibition of cell growth incubated for 72 hrs by MTT assay
- Format: functional, cell-based
- study.conditions: HGC-27, 72 h
measure: IC50 (nM)

>>> recorded_result("Cc1ccc(S(=O)(=O)Nc2cc(C(=O)NCc3ccc(C)nc3)ccc2C)cc1")
6
>>> recorded_result("COc1cc2c(c(OC)c1OC)-c1ccc(OC)c(=O)cc1[C@@H](NC(C)=O)CC2 [COLCHICINE]")
3

* * *

- assay.overview: Stability in mouse liver microsomes assessed as half life incubated in presence of NADPH by LC-MS/MS analysis
- Format: ADME, Microsome
measure: half-life (min)

>>> recorded_result("Cc1ccc(S(=O)(=O)Nc2cc(C(=O)NCc3ccc(C)nc3)ccc2C)cc1")
26

* * *

- assay.overview: Oral bioavailability in Kunming mouse at 20 mg/kg by LC-MS/MS analysis
- Format: ADME, organism-based
- study.conditions: in vivo
measure: bioavailability (%)

>>> recorded_result("Cc1ccc(S(=O)(=O)Nc2cc(C(=O)NCc3ccc(C)nc3)ccc2C)cc1")
48.2

* * *

- experimental.target: Sodium channel protein type 5 subunit alpha (Homo sapiens)
- Sequence (Q14524 whole entry): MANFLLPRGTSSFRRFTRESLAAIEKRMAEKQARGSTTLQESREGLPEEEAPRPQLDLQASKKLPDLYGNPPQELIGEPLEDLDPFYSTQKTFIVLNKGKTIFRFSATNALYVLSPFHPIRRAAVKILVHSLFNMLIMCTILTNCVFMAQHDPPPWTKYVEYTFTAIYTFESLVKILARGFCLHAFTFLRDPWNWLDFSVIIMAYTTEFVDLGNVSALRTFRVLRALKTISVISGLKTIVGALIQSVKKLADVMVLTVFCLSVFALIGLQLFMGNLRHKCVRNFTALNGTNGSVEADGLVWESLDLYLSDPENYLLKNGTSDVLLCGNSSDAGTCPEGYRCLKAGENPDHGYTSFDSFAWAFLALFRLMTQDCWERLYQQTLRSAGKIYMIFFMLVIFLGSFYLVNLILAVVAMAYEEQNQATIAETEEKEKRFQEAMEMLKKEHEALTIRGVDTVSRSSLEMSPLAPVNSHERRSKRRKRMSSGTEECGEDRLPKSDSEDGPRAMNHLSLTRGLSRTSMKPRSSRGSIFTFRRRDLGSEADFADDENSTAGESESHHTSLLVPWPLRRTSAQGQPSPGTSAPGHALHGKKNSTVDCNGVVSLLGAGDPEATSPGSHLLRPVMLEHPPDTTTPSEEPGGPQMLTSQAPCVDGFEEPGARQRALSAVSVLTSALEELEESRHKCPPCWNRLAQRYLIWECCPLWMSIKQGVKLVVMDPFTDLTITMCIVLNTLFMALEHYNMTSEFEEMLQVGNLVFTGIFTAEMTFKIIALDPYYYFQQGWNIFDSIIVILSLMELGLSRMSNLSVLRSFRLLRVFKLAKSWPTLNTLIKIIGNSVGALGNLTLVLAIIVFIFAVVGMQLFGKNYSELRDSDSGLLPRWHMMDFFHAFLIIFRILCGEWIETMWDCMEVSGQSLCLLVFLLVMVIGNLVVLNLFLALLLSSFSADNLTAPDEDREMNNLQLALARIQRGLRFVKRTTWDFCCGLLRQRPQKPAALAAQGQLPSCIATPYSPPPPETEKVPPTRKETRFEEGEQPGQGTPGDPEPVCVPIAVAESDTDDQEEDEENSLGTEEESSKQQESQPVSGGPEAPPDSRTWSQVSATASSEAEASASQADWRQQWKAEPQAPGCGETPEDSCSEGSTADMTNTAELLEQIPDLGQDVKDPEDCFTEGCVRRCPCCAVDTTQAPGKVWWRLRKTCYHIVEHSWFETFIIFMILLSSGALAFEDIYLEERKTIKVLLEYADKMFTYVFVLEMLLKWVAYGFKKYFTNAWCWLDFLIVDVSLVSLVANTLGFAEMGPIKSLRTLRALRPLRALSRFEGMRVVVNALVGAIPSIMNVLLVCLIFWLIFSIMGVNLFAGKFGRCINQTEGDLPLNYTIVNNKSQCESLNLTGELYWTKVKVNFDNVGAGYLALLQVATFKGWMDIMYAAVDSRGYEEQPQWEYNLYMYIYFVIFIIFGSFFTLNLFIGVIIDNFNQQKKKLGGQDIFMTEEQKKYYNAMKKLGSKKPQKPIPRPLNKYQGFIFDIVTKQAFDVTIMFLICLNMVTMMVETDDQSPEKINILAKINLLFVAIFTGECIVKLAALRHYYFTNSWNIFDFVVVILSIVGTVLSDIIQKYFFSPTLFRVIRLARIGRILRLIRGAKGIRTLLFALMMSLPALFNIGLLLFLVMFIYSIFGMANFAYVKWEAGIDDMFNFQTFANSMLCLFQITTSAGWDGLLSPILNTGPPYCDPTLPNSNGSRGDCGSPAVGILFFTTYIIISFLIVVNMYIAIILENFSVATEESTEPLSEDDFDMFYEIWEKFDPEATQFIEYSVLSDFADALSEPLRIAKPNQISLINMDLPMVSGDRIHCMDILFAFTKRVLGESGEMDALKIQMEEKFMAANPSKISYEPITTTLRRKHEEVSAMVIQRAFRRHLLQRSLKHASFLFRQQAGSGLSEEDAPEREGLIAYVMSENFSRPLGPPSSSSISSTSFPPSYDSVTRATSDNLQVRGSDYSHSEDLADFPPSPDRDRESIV
- assay.overview: Inhibition of human Nav1.5 expressed in CHO cells by manual patch clamp method
measure: IC50

>>> recorded_result("Cc1ccc(S(=O)(=O)Nc2cc(C(=O)NCc3ccc(C)nc3)ccc2C)cc1")
"> 30 µM"

* * *

- assay.overview: Toxicity in po dosed ICR mouse assessed as maximum tolerated dose measured on day 14
- Format: organism-based
- study.conditions: in vivo, time 14 day
measure: MTD at 336 h

>>> recorded_result("Cc1ccc(S(=O)(=O)Nc2cc(C(=O)NCc3ccc(C)nc3)ccc2C)cc1")
"> 60 mg/kg"

* * *

- assay.overview: Clearance in Kunming mouse at 2 mg/kg, iv by LC-MS/MS analysis
- Format: ADME, organism-based
- study.conditions: in vivo
measure: clearance (mL/min/kg)

>>> recorded_result("Cc1ccc(S(=O)(=O)Nc2cc(C(=O)NCc3ccc(C)nc3)ccc2C)cc1")
61.5

* * *

- assay.overview: Tmax in Kunming mouse at 20 mg/kg, po by LC-MS/MS analysis
- Assay type: ADME, organism-based
- study.conditions: in vivo
measure: Tmax

>>> recorded_result("Cc1ccc(S(=O)(=O)Nc2cc(C(=O)NCc3ccc(C)nc3)ccc2C)cc1")
"4.98 min"

* * *

- System: B16-F10
- assay.overview: Antiproliferative activity against mouse B16-F10 cells assessed as inhibition of cell growth incubated for 72 hrs by MTT assay
- Assay type: functional, cell-based
- study.conditions: B16-F10, 72 h
pIC50: −log10 of the molar value.
measure: pIC50

>>> recorded_result("COc1cc2c(c(OC)c1OC)-c1ccc(OC)c(=O)cc1[C@@H](NC(C)=O)CC2 [COLCHICINE]")
8.52
>>> recorded_result("Cc1ccc(S(=O)(=O)Nc2cc(C(=O)NCc3ccc(C)nc3)ccc2C)cc1")
8.70

* * *

- assay.overview: AUC (0 to t) in Kunming mouse at 2 mg/kg, iv by LC-MS/MS analysis
- Format: ADME, organism-based
- Set-up: dose 2 mg/kg, route iv
- study.conditions: in vivo
measure: AUC(0-t) (ng·h/mL)

>>> recorded_result("Cc1ccc(S(=O)(=O)Nc2cc(C(=O)NCc3ccc(C)nc3)ccc2C)cc1")
534

* * *

- assay.overview: AUC (0 to t) in Kunming mouse at 20 mg/kg, po by LC-MS/MS analysis
- Format: ADME, organism-based
- Design: dose 20 mg/kg, route po
- study.conditions: in vivo
measure: AUC(0-t) (ng·h/mL)

>>> recorded_result("Cc1ccc(S(=O)(=O)Nc2cc(C(=O)NCc3ccc(C)nc3)ccc2C)cc1")
2580

* * *

- assay.overview: Cytotoxicity against African green monkey Vero cells assessed as reduction in cell viability measured after 48 hrs
- Type: toxicity, cell-based, Chlorocebus sabaeus
measure: IC50 at 48 h (nM)

>>> recorded_result("Cc1ccc(S(=O)(=O)Nc2cc(C(=O)NCc3ccc(C)nc3)ccc2C)cc1")
40

* * *

- Tested on: MDA-MB-231
- assay.overview: cells
- study.conditions: Homo sapiens, MDA-MB-231, 72 h
pIC50: −log10 of the molar value.
Reported values of pIC50 for individual entries
measure: pIC50

>>> recorded_result("Cc1ccc(S(=O)(=O)Nc2cc(C(=O)NCc3ccc(C)nc3)ccc2C)cc1")
8.05
>>> recorded_result("COc1cc2c(c(OC)c1OC)-c1ccc(OC)c(=O)cc1[C@@H](NC(C)=O)CC2")
7.64

* * *

- assay.overview: Selectivity index, ratio of IC50 for cytotoxicity against African green monkey Vero cells to IC50 for antiproliferative activity against human DU-145 cells
- Type: toxicity, cell-based
- study.conditions: Vero cells and DU-145 cells, read-out: Ratio IC50
measure: selectivity ratio

>>> recorded_result("Cc1ccc(S(=O)(=O)Nc2cc(C(=O)NCc3ccc(C)nc3)ccc2C)cc1")
4

* * *

- System: NCI-H1437
- assay.overview: Antiproliferative activity against human NCI-H1437 cells assessed as inhibition of cell growth incubated for 72 hrs by MTT assay
- Assay type: functional, cell-based
- study.conditions: NCI-H1437, 72 h
pIC50: −log10 of the molar value.
Below is a list of entries, each paired with its recorded pIC50 value.
measure: pIC50

>>> recorded_result("COc1cc2c(c(OC)c1OC)-c1ccc(OC)c(=O)cc1[C@@H](NC(C)=O)CC2")
8.70
>>> recorded_result("Cc1ccc(S(=O)(=O)Nc2cc(C(=O)NCc3ccc(C)nc3)ccc2C)cc1")
8.70

* * *

- assay.overview: Stability in dog liver microsomes assessed as half life incubated in presence of NADPH by LC-MS/MS analysis
- Assay type: ADME, Canis lupus familiaris, Microsome
measure: half-life (h)

>>> recorded_result("Cc1ccc(S(=O)(=O)Nc2cc(C(=O)NCc3ccc(C)nc3)ccc2C)cc1")
2.2

* * *

- Test system: DU-145
- assay.overview: Antiproliferative activity against human DU-145 cells assessed as inhibition of cell growth incubated for 48 hrs by real-time cell analysis
- Type: functional, cell-based
- study.conditions: DU-145, 48 h
pIC50: −log10 of the molar value.
measure: pIC50

>>> recorded_result("Cc1ccc(S(=O)(=O)Nc2cc(C(=O)NCc3ccc(C)nc3)ccc2C)cc1")
8.00

* * *

pIC50 reference
- Tested on: NCI-H1299
- assay.overview: Antiproliferative activity against human NCI-H1299 cells assessed as inhibition of cell growth incubated for 72 hrs by MTT assay
- Assay type: functional, cell-based
- study.conditions: NCI-H1299, 72 h
pIC50: −log10 of the molar value.
measure: pIC50

>>> recorded_result("COc1cc2c(c(OC)c1OC)-c1ccc(OC)c(=O)cc1[C@@H](NC(C)=O)CC2")
8.40
>>> recorded_result("Cc1ccc(S(=O)(=O)Nc2cc(C(=O)NCc3ccc(C)nc3)ccc2C)cc1")
8.40
>>> recorded_result("CC(=O)O[C@H]1C(=O)[C@@]2(C)[C@H]([C@H](OC(=O)c3ccccc3)[C@]3(O)C[C@H](OC(=O)[C@H](O)[C@@H](NC(=O)c4ccccc4)c4ccccc4)C(C)=C1C3(C)C)[C@]1(OC(C)=O)CO[C@@H]1C[C@@H]2O")
8.05

* * *

- System: SW1990
- assay.overview: Antiproliferative activity against human SW1990 cells assessed as inhibition of cell growth incubated for 72 hrs by MTT assay
- Type: functional, cell-based
- study.conditions: SW1990, 72 h
measure: IC50

>>> recorded_result("CC(=O)O[C@H]1C(=O)[C@@]2(C)[C@H]([C@H](OC(=O)c3ccccc3)[C@]3(O)C[C@H](OC(=O)[C@H](O)[C@@H](NC(=O)c4ccccc4)c4ccccc4)C(C)=C1C3(C)C)[C@]1(OC(C)=O)CO[C@@H]1C[C@@H]2O [PACLITAXEL]")
"10 nM"
>>> recorded_result("COc1cc2c(c(OC)c1OC)-c1ccc(OC)c(=O)cc1[C@@H](NC(C)=O)CC2 [COLCHICINE]")
"10 nM"
>>> recorded_result("Cc1ccc(S(=O)(=O)Nc2cc(C(=O)NCc3ccc(C)nc3)ccc2C)cc1")
"15 nM"

* * *

- Tested on: MCF7R
- assay.overview: Antiproliferative activity against paclitaxel-resistant human MCF7R cells assessed as inhibition of cell growth incubated for 72 hrs by MTT assay
- Format: functional, cell-based
- study.conditions: read-out: IC50
pIC50: −log10 of the molar value.
measure: pIC50

>>> recorded_result("Cc1ccc(S(=O)(=O)Nc2cc(C(=O)NCc3ccc(C)nc3)ccc2C)cc1")
7.85
